melting point listing for selected compounds.

compound | melting point
CN1C(=O)C(c2cccc(-c3cccnc3)c2)(c2ccc(OC(F)(F)F)c(C(F)(F)F)c2)N=C1N (stereo not shown) | 98 °C
COc1cc(C2(c3cccc(-c4cccnc4)c3)N=C(N)N(C)C2=O)cc(OC)c1OC (stereo not shown) | 104 to 107 °C
Cc1cc(C2(c3cccc(-c4cncnc4)c3)N=C(N)N(C)C2=O)ccc1OCC(C)C (stereo not shown) | 103 to 105 °C
Cc1cc(C2(c3cccc(-c4cncnc4)c3)N=C(N)N(C)C2=O)ccc1OCC#N (stereo not shown) | 220 to 222 °C
CN1C(=O)C(c2ccc(OCCF)cc2)(c2ccc(F)c(-c3cncnc3)c2)N=C1N (stereo not shown) | 123 °C

Field request: melting point | item: CN1C(=O)C(c2ccc(OC(F)(F)F)c(F)c2)(c2ccc(F)c(-c3cncc(Cl)c3)c2)N=C1N (stereo not shown)
201 to 203 °C
